molecular target: T1, biotinylated human VWF cysteine knot (CK) domain construct (human, UniProt P04275 2724-2813, biotinylated in vitro (BirA) on the biotinylation tag; one N-glycan); test: SPR, scFv captured via anti-SV5, CK domain injected, pH 5.5, apparent Kd;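 further: scFvs from crude yeast supernatants captured on chip-bound anti-SV5 antibody, Kd computed as koff divided by kon, dimeric CK construct likely makes affinity appear higher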
T1 construct: Expressed in HEK293 EBNA cells; disulfide-linked homodimer; also called human VWF CK; human VWF CK domain; not shown: in vitro biotinylation tag, HRV-3C site and 3 VWF residues before the CK domain
Test readout: log10(Kd) (log10 of the value in pM)
Scale: decimal log of Kd, Kd in pM.

In the examples that follow, each entry is paired with its recorded log10(Kd).
Binder	Measured value
Lib4_P2_A11_scFv (scFv, VH-linker-VL; also called Lib4_P2_All; not shown: C-terminal 3xFLAG and SV5 tags) scFv: QVQLQESGPGLVKPSQTLSLTCTVSGVTFSSYGWSWIRQPPGKGLEWIGYVDTSGSTDYNPSLKSRVTMSVDTSKNQFSLKVNSVTAADTAVYYCARTTYYYDSSGFARGWFDPWGQGTLVTVSSSGGSTITSYNVYYTKLSSSGTEIVMTQSPATLSLSPGERATLSCRASRSISTNLAWYQRKPGQAPRLLIYDTSNRAPGIPARFSGSGSGTDFTLTISSLEPEDFAVYYCLQYDVSPYTFGGGTKVEIK	1.52
Lib4_P2_H3_scFv (scFv, VH-linker-VL; not shown: C-terminal 3xFLAG and SV5 tags) scFv: QVQLQESGPGLVKPSQTLSLTCTVSGSTFGDYAWSWIRQPPGKGLEWIGYINHIGNADYNPSLKSRVTMSVDTSKNQFSLKVNSVTAADTAVYYCARDGVESPEVPNYYYYGMDVWGQGTTVTVSSSGGSTITSYNVYYTKLSSSGTEIVMTQSPATLSLSPGERATLSCRASHSIGSNLAWYQQKPGQAPRLLIYDATNRAPGIPARFSGSGSGTDFTLTISSLEPEDFAVYYCQQSYTNPTFGGGTKVEIK	1.88
2738_Lib1_scFv (scFv, VH-linker-VL; not shown: C-terminal 3xFLAG and SV5 tags) scFv: QVQLVQSGAEVKKPGASVKVSCKVSGYTLTDLPIHWVRQAPGKGLEWMGGINPFLGTTIYAQKFQGRVTMTEDTSTDTAYMELSSLKSEDTAVYYCARGVDMLATARDYYYMAIWGKGTTVTVSSSGGSTITSYNVYYTKLSSSGTDIQMTQSPSSVSASVGDRVTITCRASQSIGNDLAWYQQKPGKAPKLLIYGASMRATGVPSRFSGSGSGTDFTLTISSLQPEDFANYYCQQYASDPLTFGGGTKVEIK	2.72
Lib8_P4_C11_scFv (scFv, VH-linker-VL; not shown: C-terminal 3xFLAG and SV5 tags) scFv: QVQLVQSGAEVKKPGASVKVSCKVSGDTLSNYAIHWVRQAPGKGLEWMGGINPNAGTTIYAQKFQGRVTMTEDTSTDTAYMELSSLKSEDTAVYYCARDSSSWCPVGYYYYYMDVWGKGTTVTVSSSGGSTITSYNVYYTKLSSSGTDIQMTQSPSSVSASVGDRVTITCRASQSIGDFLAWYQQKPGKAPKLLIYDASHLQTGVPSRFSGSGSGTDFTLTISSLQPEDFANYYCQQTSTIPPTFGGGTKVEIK	2.79
4029_Lib1_scFv (scFv, VH-linker-VL; not shown: C-terminal 3xFLAG and SV5 tags) scFv: QVQLVQSGAEVKKPGASVKVSCKVSGYPFTSSGIHWVRQAPGKGLEWMGGVIPLFGTANYAQKFQGRVTMTEDTSTDTAYMELSSLKSEDTAVYYCARIRVSSGWYRDYGMDVWGQGTTVTVSSSGGSTITSYNVYYTKLSSSGTDIQMTQSPSSVSASVGDRVTITCRASQSIGDFLAWYQQKPGKAPKLLIYDASHLQTGVPSRFSGSGSGTDFTLTISSLQPEDFANYYCQQTSTIPPTFGGGTKVEIK	3.41

*Q* Requested read-out: log10(Kd). Entry: Lib6_P3_E10_scFv (scFv, VH-linker-VL; not shown: C-terminal 3xFLAG and SV5 tags) scFv: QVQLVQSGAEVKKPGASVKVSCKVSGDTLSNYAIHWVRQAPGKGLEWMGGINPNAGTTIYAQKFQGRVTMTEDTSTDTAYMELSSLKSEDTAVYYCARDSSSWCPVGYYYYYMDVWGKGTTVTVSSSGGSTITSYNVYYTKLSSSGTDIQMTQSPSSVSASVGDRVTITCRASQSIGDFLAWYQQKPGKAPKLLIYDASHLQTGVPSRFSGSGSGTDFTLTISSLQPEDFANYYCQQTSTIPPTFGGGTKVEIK
*A* 2.82

*Q* Another: 1675_Lib1_scFv (scFv, VH-linker-VL; not shown: C-terminal 3xFLAG and SV5 tags) scFv: QVQLVQSGAEVKKPGASVKVSCKVSGVTLTSSAISWVRQAPGKGLEWMGGITPIFGTPIYAQKFQGRVTMTEDTSTDTAYMELSSLKSEDTAVYYCATDYGYPFWAFDIWGQGTMVTVSSSGGSTITSYNVYYTKLSSSGTDIQMTQSPSSVSASVGDRVTITCRASQGIYSALAWYQQKPGKAPKLLIYESSKRPSGVPSRFSGSGSGTDFTLTISSLQPEDFANYYCEQYASSPPTFGGGTKVEIK
*A* 1.48

*Q* Another: Lib4_P2_D1_scFv (scFv, VH-linker-VL; not shown: C-terminal 3xFLAG and SV5 tags) scFv: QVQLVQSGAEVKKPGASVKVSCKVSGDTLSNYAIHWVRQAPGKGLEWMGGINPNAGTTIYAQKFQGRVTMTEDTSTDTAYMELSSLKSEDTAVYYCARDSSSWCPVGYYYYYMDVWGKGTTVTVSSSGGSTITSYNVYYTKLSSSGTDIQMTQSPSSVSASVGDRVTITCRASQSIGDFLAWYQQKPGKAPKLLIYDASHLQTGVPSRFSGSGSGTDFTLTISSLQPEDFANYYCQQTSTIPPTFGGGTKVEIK
*A* 2.99

*Q* Another: 17561_Lib6_scFv (scFv, VH-linker-VL; not shown: C-terminal 3xFLAG and SV5 tags) scFv: EVQLVQSGAEVKKPGASVKVSCKASGYTFTDLPISWVRQAPGQGLEWMGWINPYTGDTNYAQKLQGRGTMTTDPSTSTAYMELRSLRSDDTAVYYCARDGVILGYYYYYGMDVWGQGTTVTVSSSGGSTITSYNVYYTKLSSSGTESALTQPASVSGSPGQSITISCTGTDLGSKSVSWYQQHPGKAPKLMIYDNFNRPSGVSNRFSGSKSGNTASLTISGLQAEDEADYYCSSRTVSGTYVFGGGTKLTVL
*A* 3.25

Taken from patent US20250154283A1.
